tested on: A498 renal; test: NCI tumour cell line growth inhibition, 48 h
reported.metric: TGI

Study these solved cases before continuing.
[[record]]
molecule = "O=c1[nH]c(NCCCCCO)nc2nc[nH]c12"
reported_metric = "TGI"
measured = "> 100 µM"

[[record]]
molecule = "COc1ccc(N=C2C(=O)Nc3ccc(Br)cc32)cc1"
reported_metric = "TGI"
measured = "> 100 µM"

[[record]]
molecule = "Cc1cc(=O)[nH]c2c1C(=O)c1c(C)cc(=O)n(C)c1C2=O"
reported_metric = "TGI"
measured = "0.36 µM"

[[record]]
molecule = "Cc1cc(C)n(C(C)(C(=O)Cc2ccccc2)n2nc(C)cc2C)n1"
reported_metric = "TGI"
measured = "> 100 µM"

[[record]]
molecule = "O=C(N[C@H]1CC2(C=C(I)C(=O)C(I)=C2)OC1=O)OCc1ccccc1"
reported_metric = "TGI"
measured = "> 100 µM"


Return TGI measured with A498 renal given this molecule: `O=C(CCCCCCCCC(=O)N1C(=O)CC(=O)N(c2ccc(Cl)cc2)C1=S)N1C(=O)CC(=O)N(c2ccc(Cl)cc2)C1=S` > 100 µM

For the record `COc1ccc(-c2nc3sccn3c2/C=C/C(=O)c2cc(OC)c(OC)c(OC)c2)cc1` , what value of TGI is listed for A498 renal? 6.41 µM

Please provide the recorded TGI for C=C(C)C1CCC2(C)C1CCC1(C)C2CCC2C3(C)C4OC(OC4=O)C(C)(C)C3CCC21C (stereo not drawn) , tested on A498 renal. > 100 µM

What reported TGI corresponds to `CN1CCN(Cc2ccc(C(=S)Nc3ccccc3)s2)CC1` on A498 renal? > 100 µM

Write down the reported TGI of CC1CC[C@@]2(OC1)OC1C[C@H]3[C@@H]4CC=C5C[C@@H](OC6OC(CO)C(OC7OC(CO)C(O)C(O)C7O)C(O)C6OC6OC(C)C(O)C(O)C6O)CC[C@]5(C)[C@H]4CC[C@]3(C)C1[C@@H]2C (stereo partly drawn) , test system: A498 renal. 1.32 µM

# get_value(readout= TGI, system= A498 renal) for `C=C(CCC(=O)N(CCc1c[nH]c2ccccc12)C(=O)c1ccccc1CSCC)C(=O)OC` > 100 µM

Request body: readout TGI, system A498 renal, query Nc1nc2c(ncn2C2OC(CO)C(O)C2O)c(=O)[nH]1 (stereo not drawn) . Return the value. 8.79 µM

# get_value(readout= TGI, system= A498 renal) for `COc1cc(-c2ccc[nH]2)[nH]c1/C=C1\N=C(C)C(C(=O)NC(C)C)=C1C` 21.6 µM

====

system: SK-MEL-2 melanoma; assay: NCI tumour cell line growth inhibition, 48 h
reported.metric: TGI

Solved entries (count: 2):
[[record]]
structure_notation = "Nc1ncnc2c1ncn2CCCNO"
tested_on = "SK-MEL-2 melanoma"
reported_metric = "TGI"
measured = "> 100 µM"

[[record]]
structure_notation = "Cc1nc(Nc2ccc(Cl)c(Cl)c2)sc1C(/C=C/c1ccc2c(c1)OCO2)=N/Nc1ccc([N+](=O)[O-])cc1[N+](=O)[O-]"
tested_on = "SK-MEL-2 melanoma"
reported_metric = "TGI"
measured = "> 100 µM"


Next up:
What does the record list as TGI for `CCOC(=O)NCC(=O)NCC(=O)NCC(N)=O` ? > 100 µM
